System: HT-29
Test: Anticancer activity against human HT-29 cells after 48 hrs by SRB assay
Type: functional
Settings: HT-29, 48 h, read-out: LC50 (the source's name)
Recorded endpoint: CC50 (µM)
Respond numerically; units are µM and should not be typed.

- Smiles text: "O=C(NCCNc1nccc(-c2c(-c3cccc(O)c3)nc3sccn23)n1)Nc1cccc(C(F)(F)F)c1"
  Value: 49.9

# ---- query molecule ----
[ask] Find the recorded CC50 belonging to O=C(NCCNc1nccc(-c2c(-c3cccc(O)c3)nc3sccn23)n1)c1ccccc1O and report it.
[reply] 40.8

---

Tested on: KM12
Assay: Anticancer activity against human KM12 cells assessed as cell growth at 10^-5 M after 48 hrs by SRB assay
Format: functional
Details: KM12, 48 h, read-out: Activity
Recorded endpoint: growth at 10 µM (%)
Respond numerically; units are % and should not be typed.

# example entries with known answers
- Smiles text: "COc1cccc(-c2nc3sccn3c2-c2ccnc(NCCNC(=O)c3ccccc3)n2)c1"
  growth at 10 µM, %: 87.8
- Smiles text: "O=C(NCCNc1nccc(-c2c(-c3cccc(O)c3)nc3sccn23)n1)Nc1cc(C(F)(F)F)cc(C(F)(F)F)c1"
  growth at 10 µM, %: 43.1
- Smiles text: "COc1cccc(-c2nc3sccn3c2-c2ccnc(NCCNC(=O)c3ccc(N4CCOCC4)c(C(F)(F)F)c3)n2)c1"
  growth at 10 µM, %: 76.2

# ---- query compound ----
[ask] // fetch KM12 growth at 10 µM for COc1cccc(-c2nc3sccn3c2-c2ccnc(NCCNC(=O)c3ccccc3O)n2)c1
[reply] 77.2

---

Listed here: items and their measured TGI.
Test system: MDA-MB-435
Assay: Anticancer activity against human MDA-MB-435 cells after 48 hrs by SRB assay
Assay type: functional
Conditions: MDA-MB-435, 48 h
Respond numerically; units are µM and should not be typed.

- Smiles text: "O=C(NCCNc1nccc(-c2c(-c3cccc(O)c3)nc3sccn23)n1)c1ccccc1"
  TGI (µM): 12.8
- Smiles text: "O=C(NCCNc1nccc(-c2c(-c3cccc(O)c3)nc3sccn23)n1)Nc1cccc(C(F)(F)F)c1"
  TGI (µM): 4.94
- Smiles text: "O=C(NCCNc1nccc(-c2c(-c3cccc(O)c3)nc3sccn23)n1)c1ccccc1O"
  TGI (µM): 3.54

[ask] Find the recorded TGI belonging to COc1cccc(-c2nc3sccn3c2-c2ccnc(NCCNC(=O)Nc3cccc(C(F)(F)F)c3)n2)c1 and report it.
[reply] 12.3

---

Listed here: items and their measured GI50.
System: SK-MEL-2
Test: Anticancer activity against human SK-MEL-2 cells after 48 hrs by SRB assay
Assay type: functional
Details: SK-MEL-2, 48 h
Respond numerically; units are nM and should not be typed.

- Smiles text: "COc1cccc(-c2nc3sccn3c2-c2ccnc(NCCNC(=O)Nc3cccc(C(F)(F)F)c3)n2)c1"
  GI50, nM: 2030
- Smiles text: "O=C(NCCNc1nccc(-c2c(-c3cccc(O)c3)nc3sccn23)n1)c1ccccc1O"
  GI50, nM: 651
- Smiles text: "O=C(NCCNc1nccc(-c2c(-c3cccc(O)c3)nc3sccn23)n1)Nc1cccc(C(F)(F)F)c1"
  GI50, nM: 2800

# ---- query molecule ----
[ask] Find the recorded GI50 belonging to O=C(NCCNc1nccc(-c2c(-c3cccc(O)c3)nc3sccn23)n1)c1ccccc1 and report it.
[reply] 2940

---

Test system: SF-268
Test: Anticancer activity against human SF268 cells after 48 hrs by SRB assay
Type: functional
Details: SF-268, 48 h
Recorded endpoint: GI50 (µM)
Respond numerically; units are µM and should not be typed.

# example entries with known answers
- Smiles text: "O=C(NCCNc1nccc(-c2c(-c3cccc(O)c3)nc3sccn23)n1)c1ccccc1"
  Recorded endpoint: "GI50"
  Unit abbrev: "µM"
  Value: 15.5
- Smiles text: "O=C(NCCNc1nccc(-c2c(-c3cccc(O)c3)nc3sccn23)n1)c1ccccc1O"
  Recorded endpoint: "GI50"
  Unit abbrev: "µM"
  Value: 3.59
- Smiles text: "COc1cccc(-c2nc3sccn3c2-c2ccnc(NCCNC(=O)Nc3cccc(C(F)(F)F)c3)n2)c1"
  Recorded endpoint: "GI50"
  Unit abbrev: "µM"
  Value: 4.59

[ask] Find the recorded GI50 belonging to O=C(NCCNc1nccc(-c2c(-c3cccc(O)c3)nc3sccn23)n1)Nc1cccc(C(F)(F)F)c1 and report it.
[reply] 3.45

---

Tested on: RPMI-8226
Assay: Anticancer activity against human RPMI8226 cells assessed as cell growth at 10^-5 M after 48 hrs by SRB assay
Assay type: functional
Details: RPMI-8226, 48 h, read-out: Activity
Recorded endpoint: growth at 10 µM (%)
Respond numerically; units are % and should not be typed.

# example entries with known answers
- Smiles text: "O=C(NCCNc1nccc(-c2c(-c3cccc(O)c3)nc3sccn23)n1)c1ccccc1"
  Tested on: "RPMI-8226"
  growth at 10 µM / %: 76.8
- Smiles text: "COc1cccc(-c2nc3sccn3c2-c2ccnc(NCCNC(=O)c3cccc(C(F)(F)F)c3)n2)c1"
  Tested on: "RPMI-8226"
  growth at 10 µM / %: 25.8
- Smiles text: "O=C(NCCNc1nccc(-c2c(-c3cccc(O)c3)nc3sccn23)n1)Nc1ccccc1"
  Tested on: "RPMI-8226"
  growth at 10 µM / %: 58.3
- Smiles text: "O=C(NCCNc1nccc(-c2c(-c3cccc(O)c3)nc3sccn23)n1)c1ccc(N2CCOCC2)c(C(F)(F)F)c1"
  Tested on: "RPMI-8226"
  growth at 10 µM / %: 58.8

# ---- query compound ----
[ask] Find the recorded growth at 10 µM belonging to O=C(NCCNc1nccc(-c2c(-c3cccc(O)c3)nc3sccn23)n1)c1cc(N2CCOCC2)cc(C(F)(F)F)c1 and report it.
[reply] 67

---

Test system: HOP-92
Assay: Anticancer activity against human HOP92 cells after 48 hrs by SRB assay
Assay type: functional
Conditions: HOP-92, 48 h
Listed here: items and their measured GI50.
Respond numerically; units are µM and should not be typed.

# example entries with known answers
- Smiles text: "O=C(NCCNc1nccc(-c2c(-c3cccc(O)c3)nc3sccn23)n1)Nc1cccc(C(F)(F)F)c1"
  GI50 / µM: 2.19
- Smiles text: "O=C(NCCNc1nccc(-c2c(-c3cccc(O)c3)nc3sccn23)n1)c1ccccc1"
  GI50 / µM: 2.22
- Smiles text: "O=C(NCCNc1nccc(-c2c(-c3cccc(O)c3)nc3sccn23)n1)c1ccccc1O"
  GI50 / µM: 9.74

# ---- query molecule ----
[ask] Find the recorded GI50 belonging to COc1cccc(-c2nc3sccn3c2-c2ccnc(NCCNC(=O)Nc3cccc(C(F)(F)F)c3)n2)c1 and report it.
[reply] 0.853

---

Tested on: MDA-MB-435
Test: Anticancer activity against human MDA-MB-435 cells after 48 hrs by SRB assay
Assay type: functional
Details: MDA-MB-435, 48 h, read-out: LC50 (the source's name)
Recorded endpoint: CC50 (µM)
Respond numerically; units are µM and should not be typed.

- Smiles text: "O=C(NCCNc1nccc(-c2c(-c3cccc(O)c3)nc3sccn23)n1)Nc1cccc(C(F)(F)F)c1"
  Recorded endpoint: "CC50"
  Value: 41
- Smiles text: "O=C(NCCNc1nccc(-c2c(-c3cccc(O)c3)nc3sccn23)n1)c1ccccc1"
  Recorded endpoint: "CC50"
  Value: 71.3

[ask] // fetch MDA-MB-435 CC50 for O=C(NCCNc1nccc(-c2c(-c3cccc(O)c3)nc3sccn23)n1)c1ccccc1O
[reply] 10.6

---

System: MDA-MB-468
Experiment: Anticancer activity against human MDA-MB-468 cells assessed as cell growth at 10^-5 M after 48 hrs by SRB assay
Assay type: functional
Conditions: MDA-MB-468, 48 h, read-out: Activity
Listed here: items and their measured growth at 10 µM.
Returns: string containing the number followed by the unit.

# example entries with known answers
- Smiles text: "O=C(NCCNc1nccc(-c2c(-c3cccc(O)c3)nc3sccn23)n1)Nc1cccc(C(F)(F)F)c1"
  Tested on: "MDA-MB-468"
  growth at 10 µM: "-40.6%"
- Smiles text: "COc1cccc(-c2nc3sccn3c2-c2ccnc(NCCNC(=O)c3cccc(C(F)(F)F)c3)n2)c1"
  Tested on: "MDA-MB-468"
  growth at 10 µM: "71.1%"

[ask] Find the recorded growth at 10 µM belonging to COc1cccc(-c2nc3sccn3c2-c2ccnc(NCCNC(=O)c3cc(C(F)(F)F)cc(C(F)(F)F)c3)n2)c1 and report it.
[reply] 95.6%

[ask] Find the recorded growth at 10 µM belonging to COc1cccc(-c2nc3sccn3c2-c2ccnc(NCCNC(=O)c3ccccc3O)n2)c1 and report it.
[reply] 102%

---

System: HT-29
Assay: Anticancer activity against human HT-29 cells assessed as cell growth at 10^-5 M after 48 hrs by SRB assay
Assay type: functional
Conditions: HT-29, 48 h, read-out: Activity
Listed here: items and their measured growth at 10 µM.
Respond numerically; units are % and should not be typed.

# example entries with known answers
- Smiles text: "O=C(NCCNc1nccc(-c2c(-c3cccc(O)c3)nc3sccn23)n1)Nc1cccc(C(F)(F)F)c1"
  Unit abbrev: "%"
  growth at 10 µM: 38.9
- Smiles text: "O=C(NCCNc1nccc(-c2c(-c3cccc(O)c3)nc3sccn23)n1)c1cc(C(F)(F)F)cc(C(F)(F)F)c1"
  Unit abbrev: "%"
  growth at 10 µM: 63.1
- Smiles text: "O=C(NCCNc1nccc(-c2c(-c3cccc(O)c3)nc3sccn23)n1)Nc1ccccc1"
  Unit abbrev: "%"
  growth at 10 µM: 61.9
- Smiles text: "COc1cccc(-c2nc3sccn3c2-c2ccnc(NCCNC(=O)c3cccc(C(F)(F)F)c3)n2)c1"
  Unit abbrev: "%"
  growth at 10 µM: 49.8
- Smiles text: "O=C(NCCNc1nccc(-c2c(-c3cccc(O)c3)nc3sccn23)n1)c1ccc(N2CCOCC2)c(C(F)(F)F)c1"
  Unit abbrev: "%"
  growth at 10 µM: 68.6
- Smiles text: "COc1cccc(-c2nc3sccn3c2-c2ccnc(NCCNC(=O)c3ccccc3O)n2)c1"
  Unit abbrev: "%"
  growth at 10 µM: 96.4

[ask] Find the recorded growth at 10 µM belonging to O=C(NCCNc1nccc(-c2c(-c3cccc(O)c3)nc3sccn23)n1)c1cccc(C(F)(F)F)c1 and report it.
[reply] 81.1

[ask] Find the recorded growth at 10 µM belonging to O=C(NCCNc1nccc(-c2c(-c3cccc(O)c3)nc3sccn23)n1)c1cc(N2CCOCC2)cc(C(F)(F)F)c1 and report it.
[reply] 49.2
